- TESTED_TARGET: androgen receptor (AR-LBD) (Rattus norvegicus, UniProt P15207)
- Construct: 5 μL of 2×AR-LBD/Fluoromone AL Red Complex contained in the kit; purchased Invitrogen
- ASSAY_METHOD_TEXT: Evaluation of androgen receptor affinity (PolarScreen Androgen Receptor Competitor Assay Kit, Red; fluorescence polarization)
- CONDITION_DETAILS: 22° C. for 5 hours, relative to binding rate of 1 μM DHT, read-out: AR affinity (pEC50) (converted)
REPORTED_PROPERTY: EC50

Study these solved cases before continuing.
[
  {
    "COMPOUND": "COC(=O)c1ccc(N(Cc2ccccc2)c2nc(C(=O)NS(C)(=O)=O)c(C)s2)nn1",
    "REPORTED_PROPERTY": "EC50",
    "MEASURED": "> 2000 nM"
  },
  {
    "COMPOUND": "CCC(c1ccccc1)N(c1ccc(C#N)cc1)c1nc(C(=O)NS(C)(=O)=O)c(C)s1 (stereo not drawn)",
    "REPORTED_PROPERTY": "EC50",
    "MEASURED": "> 2000 nM"
  },
  {
    "COMPOUND": "Cc1sc(N(Cc2ccccc2)c2ccccc2C#N)nc1C(=O)NS(C)(=O)=O",
    "REPORTED_PROPERTY": "EC50",
    "MEASURED": "> 2000 nM"
  }
]

// returns reported EC50 for input Cc1sc(N(CCn2nccn2)Cc2ccccc2)nc1C(=O)NS(C)(=O)=O > 2000 nM

Follow-up entry: Cc1sc(N(CCC(O)CO)Cc2ccccc2)nc1C(=O)NS(C)(=O)=O (stereo not drawn) > 2000 nM

Follow-up entry: Cc1sc(N(CCc2ccc(C#N)cc2)CC2CCCCC2)nc1C(=O)NS(=O)(=O)C(F)(F)F > 2000 nM

* * *

- TESTED_TARGET: androgen receptor (AR-LBD) (Rattus norvegicus, UniProt P15207)
- Construct: 5 μL of 2×AR-LBD/Fluoromone AL Red Complex contained in the kit; purchased Invitrogen
- ASSAY_METHOD_TEXT: Evaluation of androgen receptor affinity (PolarScreen Androgen Receptor Competitor Assay Kit, Red; fluorescence polarization)
- CONDITION_DETAILS: 22° C. for 5 hours, relative to binding rate of 1 μM DHT, read-out: AR affinity (pEC50) (converted)
REPORTED_PROPERTY: EC50 (nM)

[
  {
    "MOLECULE": "CCS(=O)(=O)NC(=O)c1nc(N(CCc2ccc(C#N)cc2)CC2CCCCC2)sc1C",
    "MEASUREMENT_UNITS": "nM",
    "MEASURED": 1000
  }
]

(P) Cc1sc(N(CCC2CCCC2O)c2ccc(C#N)cc2)nc1C(=O)NS(C)(=O)=O (stereo not shown)
(Q) Cc1oc(N(CCc2ccc(Cl)cc2)Cc2ccc(F)cc2)nc1C(=O)NS(C)(=O)=O
(R) Cc1oc(N(Cc2ccc(Cl)c(Cl)c2)c2ccc(C#N)cc2)nc1C(=O)NS(C)(=O)=O
Please give the order of these molecules when sorted by EC50, largest value leading. Returns: the labels listed in the requested order. P, Q, R
(P: 794 nM, Q: 63.1 nM, R: 31.6 nM)

* * *

- TESTED_TARGET: human androgen receptor (Homo sapiens)
- Construct: expressed in transfected cells; host or cells: HEK293
- Sequence (P10275 whole entry): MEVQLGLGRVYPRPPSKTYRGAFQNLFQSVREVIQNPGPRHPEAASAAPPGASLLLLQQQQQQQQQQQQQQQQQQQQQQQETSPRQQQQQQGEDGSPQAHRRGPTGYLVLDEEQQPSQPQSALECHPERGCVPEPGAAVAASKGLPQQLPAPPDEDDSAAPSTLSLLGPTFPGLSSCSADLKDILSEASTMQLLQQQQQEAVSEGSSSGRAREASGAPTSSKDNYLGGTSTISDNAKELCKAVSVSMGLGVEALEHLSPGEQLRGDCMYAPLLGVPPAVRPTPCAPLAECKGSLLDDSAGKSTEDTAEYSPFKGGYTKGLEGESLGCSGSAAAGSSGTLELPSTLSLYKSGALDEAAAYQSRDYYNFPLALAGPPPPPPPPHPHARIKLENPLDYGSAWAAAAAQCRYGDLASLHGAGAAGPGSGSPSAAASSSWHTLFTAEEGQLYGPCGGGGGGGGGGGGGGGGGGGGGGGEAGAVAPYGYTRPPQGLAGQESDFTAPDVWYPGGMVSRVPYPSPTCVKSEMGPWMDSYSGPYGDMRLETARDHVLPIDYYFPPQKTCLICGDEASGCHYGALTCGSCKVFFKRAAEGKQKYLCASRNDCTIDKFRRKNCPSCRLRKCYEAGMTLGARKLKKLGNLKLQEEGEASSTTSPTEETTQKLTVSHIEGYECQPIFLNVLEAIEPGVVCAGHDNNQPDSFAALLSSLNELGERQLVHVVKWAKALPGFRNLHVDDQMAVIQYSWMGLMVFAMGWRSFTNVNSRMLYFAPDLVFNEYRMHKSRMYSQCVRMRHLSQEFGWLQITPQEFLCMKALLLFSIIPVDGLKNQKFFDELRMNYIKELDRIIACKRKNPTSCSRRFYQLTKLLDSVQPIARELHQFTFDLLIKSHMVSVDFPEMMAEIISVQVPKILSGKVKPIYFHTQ
- ASSAY_METHOD_TEXT: Reporter assay of an androgen receptor responsive sequence (luciferase, transiently transfected HEK293 cells)
- Assay type: cell-based
- CONDITION_DETAILS: 24 hours incubation, relative to activity of 100 nM DHT, read-out: AR transcriptive activity (pEC50) (converted)
REPORTED_PROPERTY: EC50 (nM)

Study these solved cases before continuing.
[
  {
    "COMPOUND": "Cc1sc(N(Cc2ccccc2)c2ccc(C#N)cc2)nc1C(=O)NS(=O)(=O)Cc1cccnc1 [Compound 397]",
    "REPORTED_PROPERTY": "EC50",
    "MEASUREMENT_UNITS": "nM",
    "MEASURED": 126
  },
  {
    "COMPOUND": "CCS(=O)(=O)NC(=O)c1nc(N(CCc2ccc(Cl)cc2)Cc2ccc(OC(F)(F)F)cc2)sc1C [Compound 701]",
    "REPORTED_PROPERTY": "EC50",
    "MEASUREMENT_UNITS": "nM",
    "MEASURED": 1260
  },
  {
    "COMPOUND": "Cc1sc(N(Cc2ncc(Cl)cc2F)c2ccc(C#N)cc2)nc1C(=O)NS(C)(=O)=O [Example 168]",
    "REPORTED_PROPERTY": "EC50",
    "MEASUREMENT_UNITS": "nM",
    "MEASURED": 200
  }
]

(A) CCS(=O)(=O)NC(=O)c1nc(N(Cc2ccccc2)c2ccc(C#N)cc2)sc1C [Compound 362]
(B) Cc1sc(N(CCc2ccc(Cl)cc2)Cc2ccc(Cl)cc2)nc1C(=O)NS(C)(=O)=O [Compound 692]
Of A and B , which shows the smaller EC50 value? Pick one; state its label. B

(A) Cc1sc(N(Cc2ccc(Cl)c(F)c2)c2ccc(C#N)cc2)nc1C(=O)NS(C)(=O)=O [Compound 116]
(B) Cc1sc(N(Cc2cc(F)cc(Cl)c2)c2ccc(C#N)cc2)nc1C(=O)NS(C)(=O)=O [Compound 99]
(C) COCCCS(=O)(=O)NC(=O)c1nc(N(Cc2ccc(OC(F)(F)F)cc2)c2ccc(C#N)cc2)sc1C [Compound 157]
(D) CS(=O)(=O)NC(=O)c1nc(N(Cc2cccc(Cl)c2)c2ccc(C#N)cc2)sc1Cl [Example 268]
Task for the reader: rank each entry by its EC50, from the minimum upward. Returns: the labels listed in the requested order. A, D, B, C
(A: 25.1 nM, D: 63.1 nM, B: 126 nM, C: 200 nM)
